system: NSCLC cell lines (A549, H23 and H358); test: Cell viability, modified MTT assay, 24 h; assay type: cell-based, human; details: read-out: 24 h-IC50; range among A549, H23 and H358 cells
pIC50: −log10 of the molar value.
metric.name: pIC50

State the measured pIC50 (NSCLC cell lines (A549, H23 and H358)) of `CC1=C(CC(=O)O)c2cc(F)ccc2/C1=C\c1ccc(S(C)(=O)=O)cc1`
2.72 to 3.25
